# Tested on: hypoxia-inducible endogenous VEGF expression
# ASSAY_PROCEDURE: Hypoxia-inducible endogenous VEGF expression ELISA in HeLa cells, dose-response EC50 (Table 3)
# Type: cell-based, human
# TEST_PARAMETERS: Homo sapiens; HeLa cells, hypoxic conditions (1% O2), VEGF ELISA of conditioned media; read-out: ELISA EC50
Quick reference for EC50 among some compounds

Data request: Would you mind telling me what EC50 value was observed for O=C(Oc1ccc(Cl)cc1)N1CCc2c([nH]c3ccc(Cl)cc23)[C@@H]1c1ccc(OC2CCOCC2)cc1 [Compound 1605] ?
Data returned: < 8 nM

Data request: Field request: EC50 | item: Cc1cc(N)nn1CCOc1ccc(C2c3[nH]c4ccc(Cl)cc4c3CCN2C(=O)Oc2ccc(Cl)cc2)cc1 (stereo not drawn) [Compound 1418]
Data returned: 8 to 40 nM

Data request: I am curious: what EC50 value has been reported for CCS(=O)(=O)NCC(O)CCOc1ccc([C@H]2c3[nH]c4ccc(Cl)cc4c3CCN2C(=O)Oc2ccc(Cl)cc2)cc1 (stereo partly drawn) [Compound 1638] ?
Data returned: < 8 nM

Data request: Need EC50, item COc1ccc(OC(=O)N2CCc3c([nH]c4ccc(Cl)cc34)C2c2ccc(OCC#N)cc2)cc1 (stereo not drawn) [Compound 1549]
Data returned: 8 to 40 nM

Data request: If you can, please state the reported EC50 value of COCCOC(=O)NCC(O)CCOc1ccc([C@H]2c3[nH]c4ccc(Cl)cc4c3CCN2C(=O)Oc2ccc(C)cc2)cc1 (stereo partly drawn) [Compound 1645] .
Data returned: < 8 nM

Data request: EC50 lookup needed for CCCOC(=O)NCC(O)COc1ccc(C2c3[nH]c4ccc(Cl)cc4c3CCN2C(=O)Oc2ccc(Cl)cc2)cc1 (stereo not drawn) [Compound 1563] , thanks.
Data returned: 8 to 40 nM

Continuing:
Data request: I would be grateful if you could share the reported EC50 for [H]/N=c1\scnn1CCOc1ccc(C2c3[nH]c4ccc(Cl)cc4c3CCN2C(=O)Oc2ccc(F)cc2)cc1 (stereo not drawn) [Compound 1415] .
Data returned: < 8 nM

Data request: Record request: EC50 value, item CCCOC(=O)NCC(O)CCOc1ccc([C@H]2c3[nH]c4ccc(Cl)cc4c3CCN2C(=O)Oc2ccc(Cl)cc2)cc1 (stereo partly drawn) [Compound 1666]
Data returned: < 8 nM

Data request: Would you mind telling me what EC50 value was observed for Cc1cc(N)nn1CCOc1ccc(C2c3[nH]c4ccc(Cl)cc4c3CCN2C(=O)Oc2ccc(F)cc2)cc1 (stereo not drawn) [Compound 1414] ?
Data returned: < 8 nM

Data request: Dear colleague, I am looking for the recorded EC50 of the following compound: O=C(Oc1ccc(F)cc1)N1CCc2c([nH]c3ccc(Br)cc23)C1c1ccc(OCC(O)CO)cc1 (stereo not drawn) [Compound 1343]
Data returned: < 8 nM

Data request: Quick one: EC50 for [H]/N=c1\scnn1CCOc1ccc(C2c3[nH]c4ccc(Cl)cc4c3CCN2C(=O)Oc2ccc(Cl)cc2)cc1 (stereo not drawn) [Compound 1420] ?
Data returned: < 8 nM

Data request: Consider the compound COc1ccc(OC(=O)N2CCc3c([nH]c4ccc(Cl)cc34)[C@@H]2c2ccc(OCC[C@@H](O)CO)cc2)cc1 [Compound 1361] and give its measured EC50.
Data returned: 8 to 40 nM

Data request: I am curious: what EC50 value has been reported for COCCOC(=O)NCC(O)COc1ccc(C2c3[nH]c4ccc(Cl)cc4c3CCN2C(=O)Oc2ccc(Cl)cc2)cc1 (stereo not drawn) [Compound 1564] ?
Data returned: < 8 nM
